# target-or-system: T1, mouse CD276 protein (mouse, UniProt Q8VE98 29-316)
# T1 construct: whole, on cells; also called mCD276; CHO-S-mCD276
# T1 sequence (looked up): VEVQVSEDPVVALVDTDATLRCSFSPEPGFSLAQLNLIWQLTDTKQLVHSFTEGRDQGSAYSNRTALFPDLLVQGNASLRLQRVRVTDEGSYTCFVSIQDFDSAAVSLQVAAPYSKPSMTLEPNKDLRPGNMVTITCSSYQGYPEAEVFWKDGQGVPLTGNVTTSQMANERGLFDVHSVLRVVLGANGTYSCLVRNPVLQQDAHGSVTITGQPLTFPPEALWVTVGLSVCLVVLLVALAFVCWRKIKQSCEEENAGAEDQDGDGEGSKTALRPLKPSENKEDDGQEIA
# test-protocol: FACS on CHO-S-mCD276 cells
Here the recorded FACS MFI is given for each entry.

| binder | FACS MFI |
| --- | --- |
| 23-F10-G4-F11 (antibody, V domains shown, mouse monoclonal antibody (hybridoma)) VH: EVQLQESGPDLVRPGALVKLSCKSSGFNIKDYPIHWVRQRPEQGLEWIGWFDPDNGNVIYDPRFQGKASITADTSSNTAYLQLNSLTSEDTAVYYCSSPYGAMDYWGQGTSVTVSS VL: QIVLTQSPEIMSASPGEKVTMTCSASSSVSYIHWYQQKSGTSPKRWIYDTSKLASGVPARFSGSGSGTSYSLTIRSMEAEDAATYYCQQGSSNPRTFGGGTKLEIK | 1300 |
| 30-E2-G7-G7 (antibody, V domains shown, mouse monoclonal antibody (hybridoma)) VH: EVQLQESGGGLVKPGGSLKLSCAASGFTFSYYAMSWVRQTPEKRLEWVATINGDGSHTYYPDSVRGRFTISRDNAKNTLYLQVSSLRSEDTAMYYCASLLQLGPFWGQGTTLTVSS VL: DIVMTQSQKFMSTSVGDRVSVTCKASQNVGTNVAWYHQRPGQSPKPLIYSASYRYSGVPDRFTGSGSGTDFTLTISNVQSEDLAEYFCQQYNNYPLTFGSGTKLEIK | 1300 |
